target-system: HIgG
test-details: Adsorption isotherm measurements, Langmuir model
Format: binding, human
run-conditions: substitution 0.22 mmol/g; read-out: Kd
metric: Kd (µM)
Write the number in µM without appending the unit.

Field Kd (entry HWRGWV [hexapeptide ligand on Toyopearl AF-amino-650 M resin; 0.1 meq/g unless another substitution is stated] ) reads 2.58

###

# Kd per record follows
target-system: HIgG
test-details: Adsorption isotherm measurements, Langmuir model
Type: binding, human
run-conditions: substitution 0.080 mmol/g; read-out: Kd
Write the number in µM without appending the unit.

HWRGWV [hexapeptide ligand on Toyopearl AF-amino-650 M resin; 0.1 meq/g unless another substitution is stated] : 7.25

Field Kd (entry HWRGWV [Ac-HWRGWV, acetylated HWRGWV on resin, 0.080 mmol/g] ) reads 3.8

###

target-system: HIgG
test-details: Adsorption isotherm measurements, Langmuir model
Assay type: binding, human
run-conditions: substitution 0.022 mmol/g; read-out: Kd
metric: Kd (µM)
Write the number in µM without appending the unit.

Field Kd (entry HWRGWV [hexapeptide ligand on Toyopearl AF-amino-650 M resin; 0.1 meq/g unless another substitution is stated] ) reads 30

###

target-system: HIgG
test-details: Adsorption isotherm measurements, Langmuir model
Format: binding, human
run-conditions: substitution 0.55 mmol/g; read-out: Kd
metric: Kd (nM)
Write the number in nM without appending the unit.

Field Kd (entry HWRGWV [hexapeptide ligand on Toyopearl AF-amino-650 M resin; 0.1 meq/g unless another substitution is stated] ) reads 947

###

target-system: HIgG
test-details: Adsorption isotherm measurements, Langmuir model
Type: binding, human
run-conditions: Table 6; direct Langmuir fit; 0.1 meq/g; PBS pH 7.4; read-out: Kd
metric: Kd
Returns: string containing the number followed by the unit.

Field Kd (entry HYFKFD [hexapeptide ligand on Toyopearl resin, 0.1 meq/g] ) reads 11.4 µM

###

Test system: intact HIgG
test-details: Secondary screening, batch format, competitive and non-competitive modes
Type: binding, human
run-conditions: first round; pure HIgG 1 μM in PBS
No end group written: not given here.
# Bound %, HIgG, Non-competitive (Micro-BCA) per record follows
Write the number in % without appending the unit.

# count of solved cases: 4
HFDKGF (not fully specified (C-terminus)) [hexapeptide ligand on Toyopearl resin] : 10.66
HANGFL (not fully specified (C-terminus)) [hexapeptide ligand on Toyopearl resin] : 10.52
HEILYW (not fully specified (C-terminus)) [hexapeptide ligand on Toyopearl resin] : 9.16
HYGLGW (not fully specified (C-terminus)) [hexapeptide ligand on Toyopearl resin] : 17.89

Next item in the queue.
Field Bound %, HIgG, Non-competitive (Micro-BCA) (entry HRPKIF [HRPLIF] ) reads 11.20

###

target-system: HIgG
test-details: Adsorption isotherm measurements, Langmuir model
Format: binding, human
run-conditions: double reciprocal curve; PBS pH 7.4, room temperature; peptides 0.1 meq/g; read-out: Kd, DR curve
metric: Kd (nM)
Write the number in nM without appending the unit.

WHWRKR [reference compound] : 2470

Next item in the queue.
Record HWRGWV [hexapeptide ligand on Toyopearl AF-amino-650 M resin; 0.1 meq/g unless another substitution is stated] ; system HIgG; Kd = 2800

###

target-system: HIgG
test-details: Adsorption isotherm measurements, Langmuir model
Assay type: binding, human
run-conditions: substitution 0.10 mmol/g (different synthesis batch); read-out: Kd
metric: pKd
Please keep in mind that pKd is minus log10 of the molar concentration; only the number is needed.

Field pKd (entry HWRGWV [hexapeptide ligand on Toyopearl AF-amino-650 M resin; 0.1 meq/g unless another substitution is stated] ) reads 4.98

###

System: intact HIgG
test-details: Secondary screening, batch format, competitive and non-competitive modes
Assay type: binding, human
run-conditions: second round; HIgG in PBS
No end group written: not given here.
# Non-competitive, Bound per record follows
Write the number in % without appending the unit.

# count of solved cases: 3
HWGPTK (not fully specified (C-terminus)) [hexapeptide ligand on Toyopearl resin] : 14.39
HWIDPL (not fully specified (C-terminus)) [hexapeptide ligand on Toyopearl resin] : 9.03
HYFKFD [hexapeptide ligand on Toyopearl resin, 0.1 meq/g] : 69.31

Record HVHYYW [hexapeptide ligand on Toyopearl resin, 0.1 meq/g] ; system intact HIgG; Non-competitive, Bound = 55.49
